Biological target: T1, ActRIIB-Fc homodimer (UniProt Q13705 20-134, limits assumed)
T1 construct: also called ActRIIB-Fc:ActRIIB-Fc homodimer; ActRIIB homodimer; not shown: linker and Fc
T1 sequence (looked up): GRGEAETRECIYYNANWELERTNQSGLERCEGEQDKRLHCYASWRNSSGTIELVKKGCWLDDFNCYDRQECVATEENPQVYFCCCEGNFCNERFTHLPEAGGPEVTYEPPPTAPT
Assay: SPR (Biacore), Fc protein captured by anti-Fc antibody, ligand injected
VALUE TYPE: koff (s⁻¹)
Write down the numeric answer in s⁻¹ and omit the unit.

BINDER	koff, s⁻¹
BMP10 (ligand, UniProt O95393 317-424, looked up) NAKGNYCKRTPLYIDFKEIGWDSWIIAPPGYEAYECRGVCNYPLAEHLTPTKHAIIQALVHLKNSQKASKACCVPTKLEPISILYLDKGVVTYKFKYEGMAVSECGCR	0.00026
GDF3 (ligand, UniProt Q9NR23 251-364, looked up) AAIPVPKLSCKNLCHRHQLFINFRDLGWHKWIIAPKGFMANYCHGECPFSLTISLNSSNYAFMQALMHAVDPEIPQAVCIPTKLSPISMLYQDNNDNVILRHYEDMVVDECGCG	0.0022
GDF11 (ligand, UniProt O95390 299-407, looked up, also called BMP11) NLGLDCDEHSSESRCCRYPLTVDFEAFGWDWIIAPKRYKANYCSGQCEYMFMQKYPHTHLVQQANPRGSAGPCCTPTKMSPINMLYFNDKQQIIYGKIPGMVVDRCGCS	0.00011

We next turn to a different binder, shown below.
Input: Indicate the recorded koff value for this binder: BMP9 (ligand, UniProt Q9UK05 320-429, looked up, also called GDF2) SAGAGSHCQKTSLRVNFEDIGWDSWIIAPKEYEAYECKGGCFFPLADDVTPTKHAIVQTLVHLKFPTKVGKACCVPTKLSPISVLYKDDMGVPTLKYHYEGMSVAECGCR
Output: 0.0011

Entry source: patent US20200397865A1
